System: GCaMP5-expressing T. gondii
Construct: whole extracellular parasites expressing GCaMP5 Ca2+ sensor
Set-up: species or system GCaMP5-expressing Toxoplasma gondii, extracellular; GCaMP5 fluorescence (cytosolic Ca2+) after 100 uM zaprinast in compound-pretreated extracellular parasites, background-subtracted, relative to zaprinast alone
Settings: 100 uM zaprinast stimulation; 10 min pretreatment; mean of two replicates; 0.23 h
Rule: fold change in fluorescence relative to zaprinast alone under 1 gives 0 (no), otherwise 1 (yes).

COMPOUND	MEASURED_ON	ASSIGNED_LABEL
c1ccc(-c2ccc3c(Nc4ccc5[nH]ccc5c4)ccnc3c2)nc1 [GW440138A]	GCaMP5-expressing T. gondii	1 (yes)

**Query** Test whether the compound NS(=O)(=O)c1ccc(-c2cc3ccncc3cc2OCc2ccccc2)cc1 [GSK953913A] records fold change in fluorescence relative to zaprinast alone of 1 or higher.
**Result** 1 (yes)

**Query** Test whether the compound O=C(Nc1cccc(-c2nn3ccccc3c2-c2ccnc(Nc3cccc(C(F)(F)F)c3)n2)c1)c1c(F)cccc1F [GSK292658A] records fold change in fluorescence relative to zaprinast alone of 1 or higher.
**Result** 1 (yes)

**Query** Test whether the compound Cc1ccc(NC(=O)Nc2cc(C(C)(C)C)nn2-c2ccccc2)cc1 [GSK1014915A] records fold change in fluorescence relative to zaprinast alone of 1 or higher.
**Result** 0 (no)

**Query** Test whether the compound Fc1ccc(-c2ncn(CCCNCc3ccccc3)c2-c2ccncc2)cc1 records fold change in fluorescence relative to zaprinast alone of 1 or higher.
**Result** 0 (no)

**Query** Test whether the compound Cn1cc(C=C2C(=O)Nc3cccnc32)c2ccccc21 [GW441756X] records fold change in fluorescence relative to zaprinast alone of 1 or higher.
**Result** 1 (yes)

**Query** Test whether the compound O=C(Nc1n[nH]c2nc(-c3ccco3)c(Br)cc12)C1CC1 records fold change in fluorescence relative to zaprinast alone of 1 or higher.
**Result** 1 (yes)

**Query** Test whether the compound O=C(Nc1c(F)cccc1F)c1cc(C(=O)c2ccccc2F)c[nH]1 [GSK1326180A] records fold change in fluorescence relative to zaprinast alone of 1 or higher.
**Result** 0 (no)

**Query** Test whether the compound CC(C)c1ccc(O)cc1Nc1ccnc2ccc(C(F)(F)F)cc12 [GW482059X] records fold change in fluorescence relative to zaprinast alone of 1 or higher.
**Result** 1 (yes)

**Query** Test whether the compound COc1cccc(NC(=O)NCCNc2ccnc(Nc3ccc(F)cc3)n2)c1 [GSK1379879A] records fold change in fluorescence relative to zaprinast alone of 1 or higher.
**Result** 1 (yes)

**Query** Test whether the compound CCN1CCN(CCCC(=O)Nc2n[nH]c3nc(-c4ccc(O)cc4)c(Br)cc23)CC1 records fold change in fluorescence relative to zaprinast alone of 1 or higher.
**Result** 1 (yes)
